Recorded values, source patent US20220287345A1.

Assay: physchem
Conditions: water, thermodynamic from solid
QUANTITY: solubility (µg/mL)

(I) O=c1c(O)c(-c2ccc(O)c(O)c2)oc2cc(O)cc(O)c12
(II) NC(=O)N1c2ccccc2C=Cc2ccccc21 [Experiment C-9, Carbamazepine]
(III) Cc1ccc(S(=O)(=O)NC(=O)NN2CC3CCCC3C2)cc1 (stereo not shown) [Experiment C-8, Gliclazide]
(IV) Cc1ccc(-c2cc(C(F)(F)F)nn2-c2ccc(S(N)(=O)=O)cc2)cc1
Ranking field: solubility; order: falling. Reply format: the labels, ordered as requested. II, III, I, IV
(II: 240 µg/mL, III: 21 µg/mL, I: 3.6 µg/mL, IV: 0.1 µg/mL)
